Biological target: ROR1 (antigen of the KD determination and of the Octet dissociation measurement) (UniProt Q01973 30-403, limits assumed)
Sequence (Q01973 30-403 limits assumed): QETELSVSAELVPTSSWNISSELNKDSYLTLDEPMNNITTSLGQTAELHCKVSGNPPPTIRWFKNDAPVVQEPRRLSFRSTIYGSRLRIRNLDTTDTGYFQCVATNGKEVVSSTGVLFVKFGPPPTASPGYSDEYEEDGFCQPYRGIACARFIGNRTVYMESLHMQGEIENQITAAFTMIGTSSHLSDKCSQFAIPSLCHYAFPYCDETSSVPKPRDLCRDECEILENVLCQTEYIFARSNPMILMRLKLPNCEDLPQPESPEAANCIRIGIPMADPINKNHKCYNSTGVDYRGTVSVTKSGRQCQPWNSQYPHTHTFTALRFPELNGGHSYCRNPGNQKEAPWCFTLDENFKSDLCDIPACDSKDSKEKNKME
Assay: method not stated (conventional procedures)
Some binders, each annotated with its measured koff.

binder	koff
PR001364 (antibody, human IgG1, kappa, V domains shown, fully human IgG1, kappa; also called anti-ROR1 1015M3-D8 hIgG1; PR001364(WT)) VH: EVQLLESGGGVVQPGRSLRLSCAASGFTFSSFGMHWVRQAPGKGLEWVAVIWYDGSDKDYADSVKGRFTISRDTSKNTLYLQMNSLRAEDTAVYYCAREQARSFDLWGRGTLVTVSS VL: DIVMTQSPSTLSASVGDRVTITCRASQTINNWLAWYQQKPGKAPKLLIYKASSLESGVPSRFSGSGSGTEFTLTISSLQPDDFATYYCQQYNSYSPMYTFGQGTKVEIKR	0.000376 s⁻¹
PR001355 (antibody, human IgG1, kappa, V domains shown, fully human IgG1, kappa) VH: QVQLVQSGGGLVQPGGSLRLSCAASGFTFSSYGMHWVRQAPGKGLEWVAVIWYDGSNKDYADSVKGRFTISRDTSKNTLYLQMNSLRAEDTAVYYCVREQARSFDLWGRGTLVTVSS VL: DIQMTQSPSSLSASVGDRVTITCRASQTMNNWLAWYQQKPGKAPKLLIYKASSLESGVPSRFSGSGSGTEFTLTISSLQPDDSATYYCQQYNSYSPMYTFGQGTKLEIKR	0.000291 s⁻¹
PR001360 (antibody, human IgG1, kappa, V domains shown, fully human IgG1, kappa) VH: QVQLVESGGGVVQPGRSLRLSCAASGFTFSSYGMHWVRQAPGKGLEWVAVIWYDGSDKDSVDSVKGRFTISRDDSKNTLYLQMNSLRAEDTAVYYCAREQARSFDLWGRGTLVTVSS VL: DIQMTQSPSTLSASVGDRVTITCRASQTINNWLAWYQQKPGKAPKLLIYKASSLESGVPSRFSGSGSGTEFTLTISSLQPDDFATYYCQQYNIYSPMYTFGQGTKVEIKR	0.000248 s⁻¹
PR001415 (antibody, human IgG1, kappa, V domains shown, fully human IgG1, kappa) VH: EVQLVESGGGVVQPGRSLRLSCAASGFTFSNSGMHWVRQAPGKGLEWVAIMWYDGSNKDYADSVKGRFTISRDTSKNTLYLQMNSLRAEDTAVYYCAREQARSFDLWGRGTLVTVSS VL: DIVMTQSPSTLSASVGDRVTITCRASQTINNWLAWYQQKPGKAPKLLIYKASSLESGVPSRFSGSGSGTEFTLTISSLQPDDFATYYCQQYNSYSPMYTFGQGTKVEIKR	0.000512 s⁻¹
PR001366 (antibody, V domains shown, fully human IgG1, kappa) VH: QVQLVESGGGVVQPGRSLRLSCTASGFTFSSYGMHWVRQAPGKGLEWVAVKWYDGISQNFADSVKGRFTISRDNSKNTLYLQMNSLRAEDTAVYYCARDLARSFDIWGRGTLVTVSS VL: DIQLTQSPSTLSASVGDRVTITCRASQSINSWLAWYQQKPGKAPKLLIYKASSLESGVPSRFSGSGSGTEFTLTISSLQPDDFATYYCQQYKSYSPMYTFGQGTKVDIKR	0.00075 s⁻¹
PR001356 (antibody, human IgG1, kappa, V domains shown, fully human IgG1, kappa; also called anti-ROR1 1015M2-E6 hIgG1; PR001356(WT)) VH: QVQLVESGGGVVQPGRSLRLSCAASGFTFSSYGMHWVRQAPGKGLEWVAVAWYDGVSEDYADSVKGRFTISRDNAKNTLYLQMNSLRAEDTAVYYCAREQARSFDLWGRGTLVTVSS VL: DIVMTQSPSTLSASVGDRVTITCRASQSINNWLAWYQQKPGKAPKLLIYKASSLESGVPSRFSGSGSGTEFTLTISSLQPDDFATYYCQQYKSYSPMYTFGQGTKVEIKR	0.000287 s⁻¹
PR001352 (antibody, human IgG1, kappa, V domains shown, fully human IgG1, kappa) VH: EVQLLESGGGVVQPGRSLRLSCAASGFTFSSYGMHWVRQAPGKGLEWVAVKWYDGISQNFADSVKGRFTISRDNSKNTLYLQMNSLRAEDTAVYYCARDLARSFDLWGRGTLVTVSS VL: DIQLTQSPSSLSASVGDRVTITCRASQTINNWLAWYQQKPGKAPKLLIYKASSLESGVPSRFSGSGSGTEFTLTISSLQPDDFATYYCQQYNSYSPMYTFGQGTKVEIKR	0.000476 s⁻¹
PR001362 (antibody, V domains shown, fully human IgG1, kappa) VH: QVQLVESGGGLVQPGGSLRLSCAASGFTFSTYGMHWVRQAPGKGLEWVAVIWYDGSDEDYADSVKGRFTISRDNSKNTLYLQMNSLRAEDTAVYYCARDQARSFDLWGRGTLVTVSS VL: DIVMTQSPSTLSASVGDRVTITCRASQSINSWLAWYQQKPGKAPKLLIYKASSLESGVPSRFSGSGSGTEFTLTISSLQPDDFATYYCQQYKSYSPMYTFGQGTKVEIKR	0.0136 s⁻¹

Data provenance is patent US20240010721A1.
